Observed pIC50 values for Glycogen synthase kinase-3 alpha (Homo sapiens, UniProt P49840) are listed in what follows.
pIC50: −log10 of the molar value.

// below: answered compounds
compound: CCC1(c2cccc(C(F)(F)F)c2)C2=CN=NC2NC2=C1C(=O)NC(C)(C)C2F (stereo unspecified)
tgt: Glycogen synthase kinase-3 alpha (Homo sapiens, UniProt P49840)
Sequence (P49840 whole entry): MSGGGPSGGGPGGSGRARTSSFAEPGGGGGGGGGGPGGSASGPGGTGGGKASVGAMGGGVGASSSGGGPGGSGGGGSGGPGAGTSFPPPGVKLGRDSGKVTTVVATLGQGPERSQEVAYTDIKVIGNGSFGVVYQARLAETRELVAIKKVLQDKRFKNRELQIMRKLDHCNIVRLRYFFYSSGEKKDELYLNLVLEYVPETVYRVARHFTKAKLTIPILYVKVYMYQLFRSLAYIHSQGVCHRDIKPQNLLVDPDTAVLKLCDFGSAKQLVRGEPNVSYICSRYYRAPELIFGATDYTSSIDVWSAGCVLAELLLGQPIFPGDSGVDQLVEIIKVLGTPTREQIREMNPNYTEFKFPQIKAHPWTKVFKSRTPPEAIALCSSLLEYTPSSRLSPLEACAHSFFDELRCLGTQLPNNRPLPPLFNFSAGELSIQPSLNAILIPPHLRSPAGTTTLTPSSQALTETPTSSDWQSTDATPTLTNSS
pIC50: > 7.00

compound: CNC(=O)C1CCC2(CC1)C1=C(N=NC1)NC1=C2C(=O)CC(C)(C)C1 (stereo unspecified)
tgt: Glycogen synthase kinase-3 alpha (Homo sapiens, UniProt P49840)
pIC50: 6.00 to 7.00

compound: CCN1CC2(C1)C1=C(N=NC1)NC1=C2C(=O)CC(C)(C)C1
tgt: Glycogen synthase kinase-3 alpha (Homo sapiens, UniProt P49840)
pIC50: < 5.30

Request: Reported pIC50 for Glycogen synthase kinase-3 alpha (Homo sapiens, UniProt P49840), given Cn1cc(S(=O)(=O)N2CC[C@@]3(C2)C2=C(N=NC2)NC2=C3C(=O)CC(C)(C)C2)cn1 ?
Result: 6.00 to 7.00

Request: Write down the reported pIC50 of CCC1(c2cccc(Cc3ncccc3C(F)(F)F)c2)C2=CN=NC2NC2=C1C(=O)CC(C)(C)C2 (stereo unspecified) , test system: Glycogen synthase kinase-3 alpha (Homo sapiens, UniProt P49840).
Result: 6.00 to 7.00

Request: Find the measured pIC50: item CC(C)(C)CC1N=NC2=C1C1(CN(S(=O)(=O)CC3CC3)C1)C1=C(CC3(CCC3)CC1=O)N2 (stereo unspecified) , target or system Glycogen synthase kinase-3 alpha (Homo sapiens, UniProt P49840).
Result: 5.30 to 6.00

Request: Please provide the recorded pIC50 for CCC1(c2cccc(N(C)c3ccnc(F)c3)c2)C2=CN=NC2NC2=C1C(=O)CC(C)(C)C2 (stereo unspecified) , tested on Glycogen synthase kinase-3 alpha (Homo sapiens, UniProt P49840).
Result: > 7.00

Request: Short answer please: pIC50, Glycogen synthase kinase-3 alpha (Homo sapiens, UniProt P49840), entry CC[C@@]1(c2cccc(Br)c2)C2=CN=NC2NC2=C1C(=O)C[C@H](C)C2 (stereo partly specified)
Result: > 7.00

Request: Give the reported pIC50 for CCC1(c2cccc(-c3ccncc3F)c2)C2=C(CC(C)(C)NC2=O)NC2N=NC(C(F)F)=C21 (stereo unspecified) (system: Glycogen synthase kinase-3 alpha (Homo sapiens, UniProt P49840)).
Result: > 7.00

Request: For the record Cc1cccc2c1CC[C@@]21C2=C(N=NC2)NC2=C1C(=O)CC(C)(C)C2 , what value of pIC50 is listed for Glycogen synthase kinase-3 alpha (Homo sapiens, UniProt P49840)?
Result: > 7.00

Request: Enter reported pIC50 observed with Glycogen synthase kinase-3 alpha (Homo sapiens, UniProt P49840) for C[C@@H]1C[C@H](C)C(=O)C2=C1NC1=C(CN=N1)C21CCOCC1
Result: > 7.00

Request: # get_value(readout= pIC50, system= Glycogen synthase kinase-3 alpha (Homo sapiens, UniProt P49840)) for CC[C@@]1(c2cccc(-c3cc(C(F)(F)F)nn3C)c2)C2=CN=NC2NC2=C1C(=O)NC(C)(C)C2 (stereo partly specified)
Result: 6.00 to 7.00

Request: Tell me reported pIC50 for CC[C@]1(c2cccc(C(F)(F)F)c2)C2=C(N=NC2)NC2=C1C(=O)N(C)C2 , tested with Glycogen synthase kinase-3 alpha (Homo sapiens, UniProt P49840).
Result: 6.00 to 7.00

Request: Please tell me: pIC50 of CC1(C(F)(F)F)CC(=O)C2=C(C1)NC1=C(CN=N1)C21CCOCC1 (stereo unspecified) , system Glycogen synthase kinase-3 alpha (Homo sapiens, UniProt P49840)?
Result: 6.00 to 7.00

Request: Record lookup: for Glycogen synthase kinase-3 alpha (Homo sapiens, UniProt P49840), what pIC50 belongs to CN1C[C@@]2(C3=C(CC(C)(C)CC3=O)NC3N=NC(C4CC(F)(F)C4)=C32)c2ccccc21 (stereo partly specified) ?
Result: 5.30 to 6.00

Request: So what pIC50 did CC[C@@]1(c2ccccc2)C2=CN=NC2NC2=C1C(=O)CC(C)(C)[C@@H]2F (stereo partly specified) get with Glycogen synthase kinase-3 alpha (Homo sapiens, UniProt P49840)?
Result: < 5.30

Request: Lab request: please report pIC50 under test system Glycogen synthase kinase-3 alpha (Homo sapiens, UniProt P49840) for CC1(C)CC(=O)C2=C(C1)NC1N=NC=C1C21CCCN(c2ccncc2)CC1 (stereo unspecified)
Result: < 5.30
